- experiment-description: Pharmacokinetics of SNS-595 in cancer patients
- Type: in vivo, human
- condition-set: human, intravenous, 60 mg/m2, plasma, dose 60 mg/m^2
measurement-type: Cmax (ng/mL)
Unit ng/mL implied. Number only.

# input Which measured Cmax value corresponds to CN[C@H]1CN(c2ccc3c(=O)c(C(=O)O)cn(-c4nccs4)c3n2)C[C@@H]1OC [SNS-595] ?
# output 4540

###

- experiment-description: Pharmacokinetics of SNS-595 in cancer patients
- Type: in vivo, human
- condition-set: human, intravenous, 3 mg/m2, plasma, dose 3 mg/m^2
measurement-type: AUC(0-t) (ng·h/mL)
Unit ng·h/mL implied. Number only.

# input Which measured AUC(0-t) value corresponds to CN[C@H]1CN(c2ccc3c(=O)c(C(=O)O)cn(-c4nccs4)c3n2)C[C@@H]1OC [SNS-595] ?
# output 750
